Tested on: MALME-3M melanoma
assay_notes: NCI-60 one-dose screen, 48 h
applied_conditions: 10 µM
Description: Cells are grown in 96 well plates and exposed to the test compound for 48 hours. Compounds are tested at a single concentration, which is 10^-5 M for most compounds. The reported endpoint is percent growth (GI% or GIPRCNT), where numbers from 0 - 100% represent growth inhibition, and numbers from -100% - 0 represent cell death. For example, a value of 40 represents 60% growth inhibition. A value of 0 means no net growth occurred over the course of the experiment. […]
The panel holds about 83,000 compounds, 20% with a hit somewhere; the sample as a whole holds those more often. Calls of active or inactive are those of the source. Rule for the calls: active = growth percent below 10; inactive = the rest.
Outcomes: active, inactive

• O=C1c2c(c3c4ccccc4n(CCCCCCN4CCOCC4)c3c3[nH]c4ccccc4c23)C(=O)N1O = inactive
• Cc1ccc(/C=C/C(=O)C(=O)/C=C/c2ccc(C)cc2)cc1 = inactive
• CCN(CC)CCOc1cccc2c1C(=O)c1ccccc1C2=O = inactive
• CCCCCOC(=O)Nc1nc(=O)n(C2O[C@H](C)[C@@H](O)[C@H]2O)cc1F (stereo not given in full) = inactive
• CC(C)(C)c1ccc(S(=O)(=O)N[C@H]2CC[C@H]3[C@@H]4CCc5cc(O)ccc5[C@H]4CC[C@]23C)cc1 = inactive
• Cc1cc(SCc2ccccc2)nc(N)n1 = active
• O=C(Nc1cc([N+](=O)[O-])c2[nH]c(=O)c3ccccc3c2c1)C(F)(F)F = inactive
• C#CCOc1c(OC)cc(C(=O)/C(C)=C/c2cccc(N=[N+]=[N-])c2)cc1OC = inactive
• COc1cccc(N=Nc2cccc(OC)c2)c1 = inactive
• CN(C)c1ncnc2c1nnn2C1OC(CO)C(O)C1O (stereo not given) = active

----------
Test system: LOX IMVI melanoma
assay_notes: NCI-60 one-dose screen, 48 h (100 = growth as untreated, 0 = no growth, -100 = all killed)
applied_conditions: 10 µM
Protocol: Growth inhibition of the LOX IMVI human tumor cell line is measured as a screen for anti-cancer activity. Cells are grown in 96 well plates and exposed to the test compound for 48 hours. Compounds are tested at a single concentration, which is 10^-5 M for most compounds. The reported endpoint is percent growth (GI% or GIPRCNT), where numbers from 0 - 100% represent growth inhibition, and numbers from -100% - 0 represent cell death. For example, a value of 40 represents 60% growth inhibition. […]
The panel holds about 83,000 compounds, 20% with a hit somewhere; the sample as a whole holds those more often.
Please mark true (1) if the recorded growth is equal to or greater than 90%, and false (0) if it falls below.

* CCC(C)[C@H](NC(C)=O)C(=O)N[C@@H](CCCNC(=N)N)C(=O)N[C@@H](CCCCN)C(=O)N[C@@H](CC1CCC(O)CC1)C(=O)NC(C(=O)N[C@@H](CCSC)C(=O)N[C@@H](CCCNC(=N)N)C(=O)N[C@@]1(C)CCC/C=C\CCC[C@@](C)(C(=O)NC(C(=O)N[C@@H](CCC(=O)O)C(=O)N[C@@H](CC(C)C)C(=O)N[C@H](C(=O)N[C@@H](CCC(=O)O)C(N)=O)C(C)C)[C@@H](C)O)NC(=O)[C@H](CCC(N)=O)NC(=O)[C@H](CC(C)C)NC(=O)[C@H](CC(C)C)NC1=O)[C@@H](C)O (stereo not given in full) | true (1)
* COc1cc2cc(Oc3ccc(NC(=O)Nc4ccc(Cl)c(C(F)(F)F)c4)cc3)c(C)nc2cc1OC | false (0)
* Cc1c(Cl)cccc1NC(=O)CN1CCOCC1 | true (1)
* C=CCN(CC=C)C(=O)[C@H](CC)[C@@H]1CC[C@@H](C)[C@@H]([C@H](C)[C@@H](O)[C@@H](C)C(=O)[C@H](CC)C2O[C@]3(C=CC(=O)[C@]4(CC[C@@](C)([C@H]5CC[C@](O)(CC)[C@H](C)O5)O4)O3)[C@H](C)C[C@@H]2C)O1 (stereo not given in full) | false (0)
* CCOC(=O)C1=CSC2=NC3=C(CCC/C3=C\c3cc(OC)c(OC)c(OC)c3)C(c3cc(OC)c(OC)c(OC)c3)N12 (stereo not given) | false (0)
* CCN(CC)CC(=O)N(CC)c1ccc(C)c(Cl)c1 | true (1)
* CC[C@H]1OC(=O)[C@H](C)[C@@H](O[C@H]2C[C@@](C)(OC)[C@@H](O)[C@H](C)O2)[C@H](C)[C@@H](O[C@@H]2O[C@H](C)C[C@H](N(C)C)[C@H]2O)[C@](C)(OC)C/C(C)=C2/O[C@@]1(C)C=C2C | false (0)
* COc1ccccc1/C=N\N/C(N)=N\N=C\c1ccccc1OC | false (0)
* CC(C)C1=C(O)C2=C(C(=O)C1=O)[C@@]1(C)CCCC(C)(C)[C@@H]1CC2 | false (0)
* C/C=C/C1=CN2C(=O)c3cc(OC4OC(C)C(NC)C(C)(O)C4O)c(C)c(O)c3N=C[C@@H]2C1 (stereo not given in full) | false (0)
* Cc1ccc(-n2c(C)nn3c(=O)c4c5c(sc4nc23)CN(C)CC5)cc1 | true (1)
* O=C(Nc1ccc2c(O)cc(S(=O)(=O)O)cc2c1)c1ccc([N+](=O)[O-])cc1 | true (1)
* Cc1[nH]c2ccccc2c1/C=N/Nc1ncnc2sc3c(c12)CCN(CC(=O)OC(C)(C)C)C3 | false (0)
* CC(=O)OC/C=C(/C)C[P+](c1ccccc1)(c1ccccc1)c1ccccc1 | false (0)

----------
Tested on: U251 CNS
assay_notes: NCI-60 one-dose screen, 48 h (100 = growth as untreated, 0 = no growth, -100 = all killed)
applied_conditions: 10 µM
Compounds without any hit were thinned out: in the full panel of roughly 83,000, 20% have a hit.
observable: growth (%)

- O=C(/C=C/C=C/c1c(C2CC2)nc2ccccc2c1-c1ccc(F)cc1)c1cccs1: -19.4
- O=C1c2ccccc2C(=O)c2c1ccc(C(Br)Br)c2[N+](=O)[O-]: 9.58
- C=CCN(CC=C)C(=O)[C@H](CC)[C@@H]1CC[C@@H](C)[C@@H]([C@H](C)[C@@H](O)[C@@H](C)C(=O)[C@H](CC)C2O[C@]3(C=C[C@@H](O)[C@]4(CC[C@@](C)([C@H]5CC[C@](O)(CC)[C@H](C)O5)O4)O3)[C@H](C)C[C@@H]2C)O1 (stereo partly drawn): 18.9

----------
Tested on: SNB-19 CNS
assay_notes: NCI-60 one-dose screen, 48 h (100 = growth as untreated, 0 = no growth, -100 = all killed)
applied_conditions: 10 µM
About 83,000 compounds went through this panel and 20% of them were active in at least one assay; those are over-represented in the sample as a whole.
observable: growth (%)

- O=C1c2c(c3c4ccccc4n(CCCCCCN4CCOCC4)c3c3[nH]c4ccccc4c23)C(=O)N1O: 97
- O=C(Nc1cccc2c1CCCC2)c1cc2ccccc2cc1O: 30.1
- COc1cc(NC(=O)Nc2cnc(Nc3ccc(N4CCOCC4)cc3)nc2Oc2cccc(OC)c2)cc(OC)c1: 66.6
- COc1ccc(-c2nn(-c3cccc(Cl)c3)cc2-c2nc(N)[nH]c(=O)c2C#N)cc1: 60.3
- CNC(=O)c1cn(C2CC2)c2cc(N3CCN(C(=O)c4cc(OC)c(OC)c(OC)c4)CC3)c(F)cc2c1=O: 96.4
- COc1ccc2c(c1)OC(N)=C(C#N)C2c1cc(OC)c(OC)c(OC)c1 (stereo not given): 44.7
- COc1cccc2ccc(CC(O)(c3ccccc3)c3ccccc3)nc12: 96.6
- COc1cc(Cc2cc(-c3ccccc3)n[nH]c2=O)cc(OC)c1OC: 62.9
- NS(=O)(=O)Oc1ccc(NC(=O)C2CCCCCC2)cc1: 101
- O=S(=O)(Oc1ccc(-c2ccc3sccc3c2)cc1)c1ccccc1: 96.8

----------
System: HCT-116 colon
assay_notes: NCI-60 one-dose screen, 48 h (100 = growth as untreated, 0 = no growth, -100 = all killed)
applied_conditions: 10 µM
This is part of a sample that, as a whole, favours compounds with a hit. Of some 83,000 tested, about 20% had one in any assay.
Class assignment keyed on growth, ranges low range = under 20%, mid range = from 20% up to 30%, high range = 30% and over

- COc1cc(CNC(=O)C2CSC3(C)c4ccccc4C(=O)N23)cc(OC)c1OC (stereo not given): high range
- COc1cc2cc(Oc3ccc(NC(=O)Nc4ccc(Cl)c(Cl)c4)cc3)c(C)nc2cc1OC: low range
- CCOC(=O)c1cc(C(=O)c2cc(OC)cc(OC)c2)n2nc(C)ccc12: mid range
- COc1cccc(C2C(C#N)=C(N)Oc3cc(N)ccc32)c1 (stereo not given): mid range
- COc1ccc(-c2cc(-c3ccccc3)nc(SCCCCCCC(=O)NO)n2)cc1: mid range
- CCn1c(SCc2ccc(C)cc2)nnc1-c1nn(-c2ccc(Cl)cc2Cl)c(-c2ccc(Cl)cc2)c1C: low range
- COc1ccc(NC(=O)C2CC3C=CC2C3)c([N+](=O)[O-])c1 (stereo not given): high range
- CC(C)(C)c1ccc(S(=O)(=O)N[C@H]2CC[C@H]3[C@@H]4CCc5cc(O)c([N+](=O)[O-])cc5[C@H]4CC[C@]23C)cc1: high range
- O=C(Nc1ccc2c(O)cc(S(=O)(=O)O)cc2c1)c1ccc([N+](=O)[O-])cc1: high range

Cited source: PubChem BioAssay (NCI)
